- Assay overview: acute toxicity, intraperitoneal administration to mice
- Condition set: mouse, in vivo, ip, random bred Swiss Webster Female mice
Measurement name: LD50 (mg/kg)

molecule="C/C=C/C=C/C=C(\\C)[C@H]1OC[C@@H](C)[C@@H](OC)[C@@H]1OC(=O)CN (relative stereo) [Lanomycin]" unit_label=mg/kg test_result=385
